experiment.description: Pharmacokinetic evaluation in male beagle dogs
Format: in vivo
condition.label: plasma; male beagle dog; read-out: Clearance rate
metric.name: clearance (mL/min/kg)
Please give a number only; it is taken to be in mL/min/kg.

Requested read-out: clearance. Entry: O=C(NO)c1ccc(CNC(=O)c2ccc(C3(c4ccc(F)cc4)CCCO3)cn2)cc1 (stereo not shown) [Embodiment26]
16

* * *

pIC50: −log10 of the molar value.
Below are pIC50 values measured for HDAC 1 (Homo sapiens, UniProt Q13547).

The examples below pair each entry with its known result.
compound | result
O=C(NO)c1ccc(CNc2ccc(C3(c4ccc(F)cc4)CCCO3)cc2)cc1 (stereo not shown) | < 6.70
O=C(NO)c1ccc(Cn2ccc(C3(c4ccc(F)cc4)COCCO3)cc2=O)cc1 (stereo not shown) | 6.70 to 7.30
O=C(NO)c1ccc(CNC(=O)c2ccc(C3(c4ccc(F)cc4)CCCO3)cc2)cc1 (single isomer, unassigned) [Embodiment21] | 6.70 to 7.30

Note: attention shifts to another entry.
Report pIC50 for O=C(NO)c1ccc(Cn2ccc(C3(c4ccc(F)cc4)CCCO3)cc2=O)cn1 (stereo not shown) tested on HDAC 1 (Homo sapiens, UniProt Q13547).
Sequence (Q13547 whole entry, species assumed): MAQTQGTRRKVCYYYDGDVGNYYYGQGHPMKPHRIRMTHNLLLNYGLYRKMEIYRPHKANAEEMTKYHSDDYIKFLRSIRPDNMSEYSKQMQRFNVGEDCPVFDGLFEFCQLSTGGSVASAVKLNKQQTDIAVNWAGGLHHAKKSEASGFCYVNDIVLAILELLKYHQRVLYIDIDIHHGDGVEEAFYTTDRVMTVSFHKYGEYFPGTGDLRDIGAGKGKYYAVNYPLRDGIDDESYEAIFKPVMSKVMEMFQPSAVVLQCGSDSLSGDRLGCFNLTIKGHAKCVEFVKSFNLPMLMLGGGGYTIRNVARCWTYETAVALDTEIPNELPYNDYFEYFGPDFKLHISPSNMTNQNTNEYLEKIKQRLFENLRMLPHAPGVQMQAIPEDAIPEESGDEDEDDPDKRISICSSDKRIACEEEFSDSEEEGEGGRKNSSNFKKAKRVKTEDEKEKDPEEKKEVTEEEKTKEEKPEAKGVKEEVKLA
< 6.70

* * *

experiment.description: Pharmacokinetic evaluation in male beagle dogs
Type: in vivo
condition.label: plasma, oral; male beagle dog; read-out: Half-life T1/2 (converted)
metric.name: half-life (h)
Give the number; h is assumed, so skip it.

Which half-life value belongs to O=C(NO)c1ccc(CNC(=O)c2ccc(C3(c4ccc(F)cc4)CCCO3)cn2)cc1 (stereo not shown) ?
2.14

* * *

experiment.description: Pharmacokinetic evaluation in male beagle dogs
Assay type: in vivo
condition.label: plasma; male beagle dog, single oral administration; read-out: Integrated concentration AUC
metric.name: AUC (µM·h)
State just the number; it will be interpreted in µM·h.

Form field: reported AUC of O=C(NO)c1ccc(CNC(=O)c2ccc(C3(c4ccc(F)cc4)CCCO3)cn2)cc1 (stereo not shown) [Embodiment26]
13.3

* * *

// IC50 collected for HDAC 1 (Homo sapiens, UniProt Q13547)

molecule | metric.name | result
O=C(NO)c1ccc(Cn2ccc(C3(c4ccc(F)cc4)CCCO3)cc2=O)cc1 (single isomer, unassigned) | IC50 | 50 to 200 nM
O=C(NO)c1ccc(Cn2ccc(C3(c4ccccn4)CCCO3)cc2=O)cc1 (stereo not drawn) | IC50 | 50 to 200 nM
O=C(NO)c1ccc(Cn2ccc(C3(c4ccc(F)cc4)CCCO3)cc2=O)nc1 (stereo not drawn) | IC50 | > 200 nM

Param readout = IC50; param system = HDAC 1 (Homo sapiens, UniProt Q13547); param query = O=C(NO)c1ccc(Cn2ccc(C3(c4c(F)cc(F)cc4F)CCCO3)cc2=O)cc1 (stereo not drawn) ; response: value
> 200 nM

Short answer please: IC50, HDAC 1 (Homo sapiens, UniProt Q13547), entry O=C(NO)c1ccc(Nc2ccc(C3(c4ccc(F)cc4)CCCO3)cc2)cc1 (stereo not drawn)
> 200 nM

Under HDAC 1 (Homo sapiens, UniProt Q13547): IC50 value of CC1(c2ccn(Cc3ccc(C(=O)NO)cc3)c(=O)c2)CCCO1 (stereo not drawn) ?
> 200 nM

* * *

experiment.description: Pharmacokinetic evaluation in male beagle dogs
Format: in vivo
condition.label: plasma; male beagle dog, single oral administration; read-out: bioavailability F (%)
metric.name: bioavailability (%)
Return type: number; implicit unit %.

Reported bioavailability, compound O=C(NO)c1ccc(CNC(=O)c2ccc(C3(c4ccc(F)cc4)CCCO3)cn2)cc1 (stereo not shown) [Embodiment26] : ____
53.1
